Listing of recorded Population Normal (%) by entry.
test system: U2OS; test: Multiplex assay against U2OS; assay type: toxicity, cell-based; details: human, 24 h, 1 µM, compound concentration 1 uM, replicate 2
Answer with a number only, understood to be in %.

Here is how some compounds turned out for Population Normal (%).
Asked: Which measured Population Normal (%) value corresponds to O=S(=O)(c1ccccc1)c1cnc2c(N3CCNCC3)cccc2c1 [INTEPIRDINE] ?
Given back: 99

Asked: Which measured Population Normal (%) value corresponds to CSc1ccccc1N1CCN(CCCCCC(=O)NC2CCCc3ccccc32)CC1.Cl (centres undefined) ?
Given back: 97

Asked: Which measured Population Normal (%) value corresponds to C[C@H]1[C@H]2CC[C@H]3[C@@H]4CC=C5C[C@@H](N(C)C)CC[C@]5(C)[C@H]4CC[C@]23CN1C ?
Given back: 98

Okay, now this compound:
Asked: Which measured Population Normal (%) value corresponds to O=C(NCC(=O)N1CC[C@H](N[C@H]2CC[C@@](O)(c3ccc(-c4ncccn4)cn3)CC2)C1)c1cccc(C(F)(F)F)c1 ?
Given back: 96

###

system: HEK-293T; test: Multiplex assay against HEK293T; type: toxicity, cell-based; settings: human, 12 h, 10 µM, compound concentration 10 uM, replicate 2
value kind: Population Apoptotic (%)
Answer with a number only, understood to be in %.

Here is how some compounds turned out for Population Apoptotic (%).
Asked: # value lookup — system HEK-293T, readout Population Apoptotic (%), item Cc1ccc(F)cc1C(=O)Nc1ccc(C(=O)N2Cc3cccn3Cc3ccccc32)c(Cl)c1 [LIXIVAPTAN]
Given back: 50

Asked: # value lookup — system HEK-293T, readout Population Apoptotic (%), item CC(C)(C)c1ccc(S(=O)(=O)Nc2ccc(Cl)cc2C(=O)c2cc[n+]([O-])cc2)cc1 [VERCIRNON]
Given back: 39

Asked: # value lookup — system HEK-293T, readout Population Apoptotic (%), item C[C@H](NC(=O)c1c(C(F)F)nn(C)c1Oc1cccc(C(F)(F)F)c1)c1ccc(C(=O)O)cc1 [PALUPIPRANT]
Given back: 60

Okay, now this compound:
Asked: # value lookup — system HEK-293T, readout Population Apoptotic (%), item O=S(=O)(c1ccccc1)c1cnc2c(N3CCNCC3)cccc2c1 [INTEPIRDINE]
Given back: 46

###

test system: HEK-293T; assay: Multiplex assay against HEK293T; assay type: toxicity, cell-based; settings: human, 24 h, 10 µM, compound concentration 10 uM, replicate 1
Listing of recorded Population Fragmented Nuclei (%) by entry.
Answer with a number only, understood to be in %.

Asked: Which measured Population Fragmented Nuclei (%) value corresponds to Cc1ccc(/C(=C\CN2CCCC2)c2ccccn2)cc1 ?
Given back: 8

Asked: Which measured Population Fragmented Nuclei (%) value corresponds to N[C@@]1(C(=O)O)CO[C@H]2[C@H](C(=O)O)[C@H]21 ?
Given back: 10

Asked: Which measured Population Fragmented Nuclei (%) value corresponds to c1cc(OCCCN2CCCCC2)ccc1CN1CCCCC1 ?
Given back: 9

---
Asked: Which measured Population Fragmented Nuclei (%) value corresponds to CC1(COc2ccc3c(c2)ncn3-c2ccc3cccc(N4CCC(N)CC4)c3n2)COC1 ?
Given back: 60

Asked: Which measured Population Fragmented Nuclei (%) value corresponds to CN1CCN(c2nc3cc(C(F)(F)F)ccc3n3cccc23)CC1.O=C(O)/C=C\C(=O)O.O=C(O)/C=C\C(=O)O ?
Given back: 8

Asked: Which measured Population Fragmented Nuclei (%) value corresponds to Cc1ccc(F)cc1C(=O)Nc1ccc(C(=O)N2Cc3cccn3Cc3ccccc32)c(Cl)c1 ?
Given back: 5

Asked: Which measured Population Fragmented Nuclei (%) value corresponds to CN(C)c1ccnc2sc3c(=O)n(N4CCCCCC4)cnc3c12 ?
Given back: 7

Asked: Which measured Population Fragmented Nuclei (%) value corresponds to O=C1COc2nccc(-c3ccccc3F)c2CN1Cc1cc(C(F)(F)F)cc(C(F)(F)F)c1 ?
Given back: 10

Asked: Which measured Population Fragmented Nuclei (%) value corresponds to COc1cc(C(=O)N(CCCc2ccccc2)Cc2ccc(CC(=O)O)cc2)cc(OC)c1C ?
Given back: 7

Asked: Which measured Population Fragmented Nuclei (%) value corresponds to Cc1nc2ccc(Oc3ccc(F)cc3)cc2c(=O)n1C[C@H]1CCCN(C(C)C)C1.Cl ?
Given back: 10

Asked: Which measured Population Fragmented Nuclei (%) value corresponds to Cc1ccc(-c2ccc(F)cc2COc2ccc(CCC(=O)O)cc2)cc1 ?
Given back: 11

Asked: Which measured Population Fragmented Nuclei (%) value corresponds to CCCN1CCC[C@@H]2Cc3n[nH]cc3C[C@H]21.Cl [QUINPIROLE HYDROCHLORIDE] ?
Given back: 10

Asked: Which measured Population Fragmented Nuclei (%) value corresponds to CCCn1c(=O)c2[nH]c(C3CCCC3)nc2n(CCC)c1=O ?
Given back: 8

###

tested on: HEK-293T; assay: Multiplex assay against HEK293T; type: toxicity, cell-based; conditions: human, 12 h, 1 µM, compound concentration 1 uM, replicate 2
Returns one of Condition met or Condition not met; Condition met when Population Hoechst High Intensity Objects (%) is >= 6%.

Asked: Dear colleague, could you confirm whether CC[C@H]1OC(=O)[C@H](C)[C@@H](O[C@H]2C[C@@](C)(OC)[C@@H](O)[C@H](C)O2)[C@H](C)[C@@H](O[C@@H]2O[C@H](C)C[C@H](N(C)C)[C@H]2O)[C@@]2(C)CC(C)=C(O2)[C@H](C)[C@@H](O)[C@]1(C)O has Population Hoechst High Intensity Objects (%) at or above 6%?
Given back: Condition met

Asked: Dear colleague, could you confirm whether CCCC(CCC)C(=O)O has Population Hoechst High Intensity Objects (%) at or above 6%?
Given back: Condition not met

Asked: Dear colleague, could you confirm whether COc1ccccc1N1CCN(CCCCNC(=O)c2ccc3ccccc3c2)CC1.Cl has Population Hoechst High Intensity Objects (%) at or above 6%?
Given back: Condition not met

Asked: Dear colleague, could you confirm whether CCCN1CCC[C@@H]2Cc3n[nH]cc3C[C@H]21.Cl [QUINPIROLE HYDROCHLORIDE] has Population Hoechst High Intensity Objects (%) at or above 6%?
Given back: Condition not met

Asked: Dear colleague, could you confirm whether O=S(=O)(c1ccccc1)c1cnc2c(N3CCNCC3)cccc2c1 [INTEPIRDINE] has Population Hoechst High Intensity Objects (%) at or above 6%?
Given back: Condition met

Asked: Dear colleague, could you confirm whether CCOc1c2c(c(OCC)c3ncccc13)CN(c1ccc(CS(=O)(=O)NC(=O)Cc3ccccc3OC)cc1C)C2=O has Population Hoechst High Intensity Objects (%) at or above 6%?
Given back: Condition not met

Asked: Dear colleague, could you confirm whether CCCn1c(=O)c2[nH]c(C3CCCC3)nc2n(CCC)c1=O has Population Hoechst High Intensity Objects (%) at or above 6%?
Given back: Condition not met

Asked: Dear colleague, could you confirm whether C[C@@H]1C[C@H]2[C@@H]3CCC4=CC(=O)C=C[C@]4(C)[C@@]3(F)[C@@H](O)C[C@]2(C)[C@@]1(O)C(=O)CO has Population Hoechst High Intensity Objects (%) at or above 6%?
Given back: Condition met

---
Asked: Dear colleague, could you confirm whether COc1cc(NC(=O)CCN2CCC(OC(=O)Nc3ccccc3-c3ccccc3)CC2)c(Cl)cc1CNC[C@H](O)c1ccc(O)c2[nH]c(=O)ccc12 has Population Hoechst High Intensity Objects (%) at or above 6%?
Given back: Condition met

Asked: Dear colleague, could you confirm whether Cl.Clc1ccc2nsnc2c1NC1=NCCN1 [TIZANIDINE HYDROCHLORIDE] has Population Hoechst High Intensity Objects (%) at or above 6%?
Given back: Condition met

Asked: Dear colleague, could you confirm whether N#Cc1c(N)nc(SCc2csc(-c3ccc(Cl)cc3)n2)c(C#N)c1-c1ccc(OCCO)cc1 has Population Hoechst High Intensity Objects (%) at or above 6%?
Given back: Condition not met

Asked: Dear colleague, could you confirm whether N[C@@]1(C(=O)O)CO[C@H]2[C@H](C(=O)O)[C@H]21 has Population Hoechst High Intensity Objects (%) at or above 6%?
Given back: Condition met

###

Listing of recorded Population Mitochondria Different-Phenotype (%) by entry.
system: Fibroblast; assay: Multiplex assay against human fibroblast; format: toxicity, cell-based; details: 48 h, 10 µM, compound concentration 10 uM, replicate 2
Answer with a number only, understood to be in %.

Asked: Which measured Population Mitochondria Different-Phenotype (%) value corresponds to O=S(=O)(c1ccccc1)c1cnc2c(N3CCNCC3)cccc2c1 [INTEPIRDINE] ?
Given back: 6

###

tested on: Fibroblast; assay: Multiplex assay against human fibroblast; type: toxicity, cell-based; conditions: 24 h, 1 µM, compound concentration 1 uM, replicate 2
Listing of recorded Population Fragmented Nuclei (%) by entry.
Answer with a number only, understood to be in %.

Here is how some compounds turned out for Population Fragmented Nuclei (%).
Asked: Which measured Population Fragmented Nuclei (%) value corresponds to CCCN1CCC[C@@H]2Cc3n[nH]cc3C[C@H]21.Cl [QUINPIROLE HYDROCHLORIDE] ?
Given back: 28

Asked: Which measured Population Fragmented Nuclei (%) value corresponds to Oc1c(CN2CCN(c3ccccn3)CC2)cc(Cl)c2cccnc12 ?
Given back: 29

Asked: Which measured Population Fragmented Nuclei (%) value corresponds to CC(=O)NCCc1c(Cc2ccccc2)[nH]c2ccccc12 [LUZINDOLE] ?
Given back: 25

---
Asked: Which measured Population Fragmented Nuclei (%) value corresponds to CN(C)c1ccnc2sc3c(=O)n(N4CCCCCC4)cnc3c12 ?
Given back: 24

Asked: Which measured Population Fragmented Nuclei (%) value corresponds to N[C@@]1(C(=O)O)CO[C@H]2[C@H](C(=O)O)[C@H]21 [LY-379268] ?
Given back: 40

Asked: Which measured Population Fragmented Nuclei (%) value corresponds to C[C@H](NC(=O)c1c(C(F)F)nn(C)c1Oc1cccc(C(F)(F)F)c1)c1ccc(C(=O)O)cc1 [PALUPIPRANT] ?
Given back: 26

Asked: Which measured Population Fragmented Nuclei (%) value corresponds to N#Cc1c(N)nc(SCc2csc(-c3ccc(Cl)cc3)n2)c(C#N)c1-c1ccc(OCCO)cc1 [CAPADENOSON] ?
Given back: 35

Asked: Which measured Population Fragmented Nuclei (%) value corresponds to O=C(O)Cc1ccccc1Nc1c(Cl)cccc1Cl [DICLOFENAC] ?
Given back: 28

Asked: Which measured Population Fragmented Nuclei (%) value corresponds to O=S(=O)(c1ccccc1)c1cnc2c(N3CCNCC3)cccc2c1 [INTEPIRDINE] ?
Given back: 32

Asked: Which measured Population Fragmented Nuclei (%) value corresponds to Cc1ccc(C(C)(O)c2nc3ccccc3s2)c(C)c1 (configuration not stated) ?
Given back: 25

Asked: Which measured Population Fragmented Nuclei (%) value corresponds to CCNC1(C(N)=O)CCN(c2ncnc3c2nc(-c2ccccc2Cl)n3-c2ccc(Cl)cc2)CC1 [OTENABANT] ?
Given back: 27

Asked: Which measured Population Fragmented Nuclei (%) value corresponds to CC1(COc2ccc3c(c2)ncn3-c2ccc3cccc(N4CCC(N)CC4)c3n2)COC1 [CRENOLANIB] ?
Given back: 41

Asked: Which measured Population Fragmented Nuclei (%) value corresponds to CN1CCN2c3ncccc3Cc3ccccc3C2C1 (configuration not stated) [MIRTAZAPINE] ?
Given back: 26

Asked: Which measured Population Fragmented Nuclei (%) value corresponds to CN1CCN(c2nc3cc(C(F)(F)F)ccc3n3cccc23)CC1.O=C(O)/C=C\C(=O)O.O=C(O)/C=C\C(=O)O ?
Given back: 35

Asked: Which measured Population Fragmented Nuclei (%) value corresponds to c1cc(OCCCN2CCCCC2)ccc1CN1CCCCC1 [JNJ-5207852] ?
Given back: 28

Asked: Which measured Population Fragmented Nuclei (%) value corresponds to Cc1nc2ccc(Oc3ccc(F)cc3)cc2c(=O)n1C[C@H]1CCCN(C(C)C)C1.Cl ?
Given back: 29

Asked: Which measured Population Fragmented Nuclei (%) value corresponds to O=C(NCCO)c1cccc(-c2cc(Nc3ccc(OC(F)(F)F)cc3)ncn2)c1 ?
Given back: 24
